Cited source for all entries: the supplement of paper PMC13380429

Kindly state cell viability for each of the entries shown.
- Test system: U2OS
- measurement-protocol: cell viability relative to DMSO; higher = less toxic
- test-parameters: 72 h; 100 nM
Write it as a number; the unit % goes unstated.

Inquiry: Using the record for O=c1[nH]c2ccc(Cl)cc2c(N[C@@H]2CN3CCC2CC3)c1-c1nc2ccccc2[nH]1 [CHIR-124] , report its cell viability.
Reply text: 95.3

Inquiry: I am curious: what cell viability value has been reported for O=C(Nc1ccc(-c2ccncc2)cc1)N[C@H](CO)c1ccccc1 ?
Reply text: 99.2

Inquiry: Data request, read-out cell viability, for C[C@@H]1CCCN1CCc1cc2cc(-c3ccc(C#N)cc3)ccc2o1 [ABT-239]
Reply text: 97.9

Inquiry: Which cell viability reading was recorded for the molecule C#Cc1cccc(Nc2ncnc3cc(OCCOC)c(OCCOC)cc23)c1 [erlotinib] ?
Reply text: 94.2

Inquiry: Entry under review: COc1ccccc1N1CCN(CCN2C(=O)c3ccccc3C(C)(C)C2=O)CC1 [ARC-239] . Reported cell viability?
Reply text: 97.9

Inquiry: Which cell viability is reported for this molecule? CCCCCCCCN=c1ccn(CCCCCCCCCCn2ccc(=NCCCCCCCC)cc2)cc1 [octenidine]
Reply text: 95.4

Inquiry: Requested field: cell viability. Item: COc1ccc2[nH]c([S+]([O-])Cc3ncc(C)c(OC)c3C)nc2c1 (configuration not stated) [omeprazole-magnesium]
Reply text: 102

====

- Test system: U2OS
- measurement-protocol: cell viability relative to DMSO; higher = less toxic
- test-parameters: 72 h; 10000 nM
observation-type: cell viability (%)
Please state the figure in %; there is no need to write the unit.

Inquiry: Which cell viability is listed for CCNC(=O)C[C@@H]1N=C(c2ccc(Cl)cc2)c2cc(OC)ccc2-n2c(C)nnc21 ?
Reply text: 47.8

Inquiry: Request the reported cell viability associated with Nc1nc(N)c(N=O)c(OCC2CCCCC2)n1
Reply text: 70.7

Inquiry: Quick check: cell viability of O=C1c2ccccc2C(=O)C1c1ccc(Br)cc1 ?
Reply text: 102

Inquiry: Recorded cell viability for COc1ccc2[nH]c([S+]([O-])Cc3ncc(C)c(OC)c3C)nc2c1 (stereo not drawn) , please?
Reply text: 96

Inquiry: Requested field: cell viability. Item: Nc1ccc(C(=O)O)c(O)c1 [aminosalicylate]
Reply text: 93.8

Inquiry: Fill in the blank: the reported cell viability of CCOC(=O)c1ccc(O)cc1 is ____.
Reply text: 106

Inquiry: // returns reported cell viability for input CCOc1ccccc1OC(c1ccccc1)C1CNCCO1 (stereo not drawn)
Reply text: 104

Inquiry: Reported cell viability, molecule N[C@@H](Cc1c[nH]c2ccccc12)C(=O)O : ____
Reply text: 98.1

Inquiry: Which cell viability value is on record for C=CC(=O)Nc1cccc(Nc2nc(Nc3ccc(N4CCN(C(C)=O)CC4)cc3OC)ncc2C(F)(F)F)c1 ?
Reply text: 16.7

Inquiry: State the recorded cell viability for this entry: CC(=O)OCC(=O)[C@@]1(O)CC[C@H]2[C@@H]3CCC4=CC(=O)CC[C@]4(C)[C@@]3(F)[C@@H](O)C[C@@]21C [FLUDROCORTISONE ACETATE]
Reply text: 93.1

Inquiry: Return reported cell viability; argument: CCC(=O)c1cc(-c2ccc(Cl)cc2)n(-c2ccc(S(N)(=O)=O)cc2)c1C
Reply text: 102

Inquiry: Item under review: C[C@]12CC[C@@H]3c4ccc(OC(=O)c5ccccc5)cc4CC[C@H]3[C@@H]1CC[C@@H]2O [estradiol-benzoate] . Reported cell viability?
Reply text: 99.8

Inquiry: What value of cell viability has been reported for the following molecule? O=C1C(=Cc2cccnc2)C(=O)c2ccccc21
Reply text: 98.3
